test system: DU-145 prostate; assay: NCI tumour cell line growth inhibition, 48 h
Quantity: TGI

Prompt: Reported TGI, molecule CCN(CC)CCN(C)c1ccc(CO)c2c1C(=O)c1ccccc1S2=O (stereo not given) : ____
Completion: 28.3 µM

Prompt: Reported TGI, molecule CC(=O)NC(NCCN)(c1ccccc1)c1ccccc1 : ____
Completion: > 100 µM

Prompt: Reported TGI, molecule CC(=O)[C@H]1CCC/C=C/[C@@H]2C[C@H](O)C[C@H]2[C@H](O)/C=C/C(=O)O1 : ____
Completion: > 100 µM

Prompt: Reported TGI, molecule COc1ccc2c(c1)/C(=C\c1c(Cl)[nH]c3ccccc13)C(=O)N2 : ____
Completion: 56.7 µM

Prompt: Reported TGI, molecule CC1=C(O)c2ccccc2C(=O)C1=O : ____
Completion: > 100 µM

Prompt: Reported TGI, molecule C=CCC(N[C@@H](CO)c1ccccc1)c1cn(C(=O)OCC)c2ccccc12 (stereo not given in full) : ____
Completion: 86 µM

Prompt: Reported TGI, molecule C/C(=C(\c1ccc(OCCN2CCCCCC2)cc1)c1ccc(OC(=O)c2ccccc2)cc1)c1ccc(Cl)cc1 : ____
Completion: 11.3 µM

Prompt: Reported TGI, molecule CN(C)N1C(=O)S/C(=C\c2ccc([N+](=O)[O-])cc2)C1=O : ____
Completion: > 100 µM

Prompt: Reported TGI, molecule O=C1O[C@H]2[C@H](OC(=O)c3cc(O)c(O)c(O)c3)[C@@H](OC(=O)c3cc(O)c(O)c4c3[C@@H]3C1=CC(=O)C(O)(O)C3(O)O4)[C@H](OC(=O)c1cc(O)c(O)c(O)c1)O[C@@H]2COC(=O)c1cc(O)c(O)c(O)c1 (stereo not given in full) : ____
Completion: > 100 µM

Prompt: Reported TGI, molecule COc1cc(C(=O)c2cnc(-c3cccc4[nH]ccc34)[nH]2)cc(OC)c1OC : ____
Completion: > 100 µM

Prompt: Reported TGI, molecule CCNC(=O)Oc1ccc(/C(=C(/C)Cc2ccc(OC)cc2)c2ccc(OCCN(CC)CC)cc2)cc1 : ____
Completion: 5.83 µM

Prompt: Reported TGI, molecule Cc1cccc2sc(-c3ccc(O)cc3)nc12 : ____
Completion: 31.6 µM

Prompt: Reported TGI, molecule CC(C)CC(N)C(=O)Nc1ccc2ccccc2c1 (stereo not given) : ____
Completion: > 100 µM

Prompt: Reported TGI, molecule Fc1ccc2c3c([nH]c2c1)CCN(Cc1ccccc1)C3 : ____
Completion: 70.9 µM

Prompt: Reported TGI, molecule CCCSc1ccc2[nH]c(N3C(=O)/C(=C/c4ccc(SC)cc4)N=C3c3ccccc3)cc2c1 : ____
Completion: > 50 µM

Prompt: Reported TGI, molecule CN1CCN(Cc2ccc(NC(=O)c3cncc(C#Cc4cnc(N)c5cccnc45)c3)cc2C(F)(F)F)CC1 : ____
Completion: > 50 µM

Prompt: Reported TGI, molecule CCN(Cc1cccc(Cl)c1)c1ccc(CO)c(Cl)c1 : ____
Completion: 24.8 µM

Prompt: Reported TGI, molecule COc1cccc(/C=C2\S/C(=N/Nc3nc(C)c(C)s3)NC2=O)c1O : ____
Completion: > 100 µM

Prompt: Reported TGI, molecule CCC(C)[C@@H](Nc1c(O)c2c(c(O)c1Cl)C(=O)C=CC2=O)C(=O)OC (stereo not given in full) : ____
Completion: > 10 µM

Prompt: Reported TGI, molecule COc1cc(C2c3cc4c(cc3C(OC(=O)C[n+]3ccccc3)C3COC(=O)C23)OCO4)cc(OC)c1OC (stereo not given) : ____
Completion: > 100 µM

Values from PubChem BioAssay (NCI)
